The reported numbers originate from ChEMBL document CHEMBL4689842.

System: U2OS
Experiment: Multiplex assay against U2OS
Type: toxicity, cell-based
Conditions: human, 24 h, 10 µM, compound concentration 10 uM, replicate 1
assay readout: Total Cell Count
API note: the answer field is a bare number with no unit suffix.

Challenge: For O=C(Nc1ccc(-c2ccnc(Nc3ccc(N4CCOCC4)cc3)n2)cc1)[C@@H]1CCCN1 , what is its reported Total Cell Count?
Response given: 198

Challenge: Give its Total Cell Count value. Item: COc1cc2ncnc(Nc3ccc(F)c(Cl)c3)c2cc1NC(=O)/C=C/CN1CCCCC1 [DACOMITINIB ANHYDROUS]
Response given: 184

Challenge: Could you tell me which Total Cell Count is on file for NC(=O)c1cccc(-c2cc(Nc3ccc(OC(F)(F)F)cc3)ncn2)c1 ?
Response given: 281

Challenge: Look up Total Cell Count: CCc1cccc(CC)c1NC(=O)c1nn(C)c2c1CCc1cnc(Nc3ccc(N4CCN(C)CC4)cc3OC)nc1-2
Response given: 196

Challenge: Reported Total Cell Count, compound S=C(NCCCc1c[nH]cn1)NCCCN(Cc1ccc(Cl)c(Cl)c1)c1ccc(Br)cn1 : ____
Response given: 149

Challenge: Entry O=C1NC(=O)C(c2cnc3ccccn23)=C1c1cn2c3c(cc(F)cc13)CN(C(=O)N1CCCCC1)CC2 : reported Total Cell Count = ?
Response given: 171

Challenge: Need Total Cell Count, item Cc1cc(C)c(S(=O)(=O)N(Cc2ccc(-c3cccc(S(C)(=O)=O)c3)cc2)Cc2ccc(C(F)(F)F)o2)c(C)c1
Response given: 133

Challenge: Field request: Total Cell Count | item: O=C(Nc1ccc(-n2nc(-c3cccnc3)cc2C(F)(F)F)cn1)c1ccc(-c2ccccc2)c(F)c1
Response given: 135

Challenge: Total Cell Count for O=C(Nc1cccnn1)N1CCC(=Cc2cccc(Oc3ccc(C(F)(F)F)cn3)c2)CC1 ?
Response given: 221

Challenge: If you can, please state the reported Total Cell Count value of Cc1cn(-c2cc(NC(=O)c3ccc(C)c(Nc4nccc(-c5cccnc5)n4)c3)cc(C(F)(F)F)c2)cn1 .
Response given: 184

Challenge: So what's the measured Total Cell Count for this one? Cc1ccc(C(=O)Nc2cccc(C(F)(F)F)c2)cc1Nc1nc(-c2cccnc2)nc2c1cnn2C
Response given: 166

Challenge: What value of Total Cell Count has been reported for the following compound? CNc1cc(Oc2cc(C(=O)Nc3cc(N4CCN(C)CC4)cc(C(F)(F)F)c3)ccc2C)ncn1
Response given: 120

Challenge: Reported Total Cell Count, compound CN1C2CCC1CC(OC(c1ccc(F)cc1)c1ccc(F)cc1)C2.Cl (configuration not stated) : ____
Response given: 196

Challenge: For COc1ccc(S(=O)(=O)N(CCO)c2ccccc2CN(C)C/C=C/c2ccc(Cl)cc2)cc1.O=P(O)(O)O , what is its reported Total Cell Count?
Response given: 173

Challenge: Which Total Cell Count value belongs to COc1cccc2cc(-c3nc([C@H]4CC[C@H](C(=O)O)CC4)n4ncnc(N)c34)[nH]c12 ?
Response given: 190

Challenge: Entry CCCn1c(=O)c2[nH]c(-c3cnn(Cc4cccc(C(F)(F)F)c4)c3)nc2n(CC)c1=O : reported Total Cell Count = ?
Response given: 133

Challenge: Dear colleague, I am looking for the recorded Total Cell Count of the following compound: C=C1/C(=C\C=C2/CCC[C@]3(C)[C@@H]([C@H](C)/C=C/[C@H](C)C(C)C)CC[C@@H]23)C[C@@H](O)C[C@@H]1O
Response given: 197
